// provenance: PubChem BioAssay (NCI)

tested on: KM12 colon; test: NCI tumour cell line growth inhibition, 48 h
# Lookup of reported TGI keyed by entry

The examples below pair each entry with its known result.
molecule	measured attribute	endpoint result
Cc1ccc(S(=O)(=O)ON2C(=O)c3cccc4cc([N+](=O)[O-])cc(c34)C2=O)cc1	TGI	> 100 µM
CC1(C)N=C(N)N=C(N)N1c1ccc(CNC(=O)Nc2ccc(S(=O)(=O)F)c(Cl)c2)c(Cl)c1	TGI	> 100 µM
COc1cc(CCC[P+](c2ccccc2)(c2ccccc2)c2ccccc2)c(OC)c2c1OCO2	TGI	6.59 µM
CO/C=C(/C(=O)OC)[C@@H]1C[C@@H]1c1ccc2ccccc2c1	TGI	54.6 µM
COc1ccccc1C#Cc1ccccc1C#Cc1ccc(OCCCCCCOc2ccccc2C#Cc2ccccc2C#Cc2ccccc2OC)cc1	TGI	> 100 µM
COc1cc(-n2ccnc2-c2ccc3ccccc3c2)cc(OC)c1OC	TGI	18.9 µM
CC(C)(C)C1=C(Br)C(F)(C(C)(C)C)OP1(=O)c1ccccc1 (stereo not given)	TGI	33.7 µM
CCOC(=O)C12CCCC1(O)N(NC(=O)OC)C(C)=C2C(=O)OC (stereo not given)	TGI	> 10 µM
OC1CC2CCC(C1)N2CCCN1c2ccccc2Sc2ccc(Cl)cc21 (stereo not given)	TGI	4.08 µM
CCOC(=O)C(=Cc1ccc(C#N)cc1)C(=O)OCC	TGI	8.8 µM

For KM12 colon, provide TGI of `Cc1ncn(-c2ccccc2O)c1C` please. > 100 µM

Test system KM12 colon; read-out TGI; what value for `NCC(=O)Nc1ccccc1` ? > 100 µM

Return TGI measured with KM12 colon given this molecule: COc1ccc2c(c1)CCC1C2CC[C@@]2(C)C1CC[C@@H]2NC(=O)Cc1ccc(O)c(O)c1 (stereo not given in full) 21.7 µM

Hi! What's the reported TGI for `C(=N\c1nc2cc3sc(/N=C/c4ccccc4)nc3cc2s1)/c1ccccc1` on KM12 colon? > 100 µM

Field: TGI (KM12 colon). Entry: `COc1ccc(CCN2CCN(CCCc3ccccc3)CC2)cc1` > 100 µM

Fill in the recorded TGI for this molecule, with KM12 colon as test system: COc1ccc(N2C(=O)C3CC(c4ccc(Br)cc4)c4c([nH]c5ccccc45)C3C2=O)cc1 (stereo not given) > 100 µM

Reported TGI for KM12 colon, given OC1NC2Nc3ccccc3NC2NC1O (stereo not given) ? > 100 µM

Please provide the recorded TGI for NCCCCC(NC(=O)C(N)CCCN=C(N)N)C(=O)NC(CCCCN)C(=O)NC(CCCN=C(N)N)C(=O)NC(CCCN=C(N)N)C(=O)NC(CCC(N)=O)C(=O)NC(CCCN=C(N)N)C(=O)NC(CCCN=C(N)N)C(=O)NC(CCCN=C(N)N)C(=O)NCC(=O)NCC(=O)O (stereo not given) , tested on KM12 colon. > 50 µM

Fill in the recorded TGI for this molecule, with KM12 colon as test system: `COc1ccc(C(=O)/C=C/c2ccc(OCCCCCCCCCCOc3ccc(/C=C/C(=O)c4ccc(OC)cc4)cc3)cc2)cc1` > 100 µM

State its TGI on KM12 colon: `NC(=S)N/N=C/c1ccc(OC(=O)COc2cc(Cl)c(Cl)cc2Cl)cn1` > 100 µM

----------
Documented TGI across a set of compounds
test system: HS 578T breast; assay: NCI tumour cell line growth inhibition, 48 h
Where a SMILES comes first, the peptide text is derived from it. [ ]: non-standard residue; d: D form. pGlu = O=C1CC[CH](C(=O)O)N1

Here is how some compounds turned out for TGI.
compound	target desc	TGI
CC(NC(=O)C1CCC(=O)N1)C(=O)N1CCCC1C(N)=O (stereo not drawn) ([pGlu]-Ala-Pro-NH2; configuration not given here)	HS 578T breast	> 100 µM
O=C1c2ccccc2C(=O)N1CCc1ncc(-c2ccccc2)[nH]1	HS 578T breast	> 100 µM

If you can, please state the reported TGI value of CC1(C)Oc2ccc3ccc(=O)oc3c2C(O)C1O (stereo unspecified) . > 100 µM

Fill in the blank: the reported TGI of C=CCC1(C(=O)OC)CCC/C(=N\O)C1 (stereo unspecified) is ____. > 10 µM

----------
TGI values for the compounds below.
tested on: KM20L2 colon; test: NCI tumour cell line growth inhibition, 48 h

                                   compound  measured_attribute  endpoint_result
0  C=C(/C=C/C=C(\C)CCC=C(C)C)[C@@H]1CC[C@]2([C@H](CCCO)/C(=C(/C)C=O)CC[C@]2(C)O)[C@@H]1O                 TGI         > 100 µM
1  Cc1cccc(-c2nnc3s/c(=C\c4ccc(N(C)C)cc4)c(=O)n23)c1                 TGI         > 100 µM
2  CCOC(=O)C1(C(=O)OCC)C(C(C)(C)C)=C(C)c2ccccc21                 TGI          28.2 µM
3  CN(C)c1ccc(/C=c2\sc3nnc(-c4ccco4)n3c2=O)cc1                 TGI         > 100 µM

Now look at this one.
Fill in the recorded TGI for this compound, with KM20L2 colon as test system: Nc1nc(=O)n(C2CCC(CO)O2)cc1F (stereo not given) > 100 µM

----------
Listed here: items and their measured TGI.
system: RPMI-8226 leukemia; assay: NCI tumour cell line growth inhibition, 48 h

Please report the recorded TGI for `COc1cc(-c2nn(-c3cccc(NC(=O)Nc4ccc(Cl)c(C(F)(F)F)c4)c3)cc2-c2ccncc2)ccc1Cl` . 3.25 µM

Field request: TGI | item: Cc1cn(C2CC(n3cc(Cn4ccc(=O)[nH]c4=O)nn3)C(CO)O2)c(=O)[nH]c1=O (stereo not given) > 100 µM

# lookup: TGI of `COc1ccc(/C=C/c2cc(OC)c(OC(C)=O)c(OC)c2)cc1` > 100 µM

Looking for the measured TGI of `CC(C)(C)C1=CC(=N/N=c2\scc(-c3ccccc3)n2-c2ccccc2)C=C(C(C)(C)C)C1=O` , can you help? > 100 µM

Report TGI for O=P1(c2ccccc2)C(c2ccccc2)CCC1c1ccccc1 (stereo not given) please. 78.2 µM

----------
system: COLO 205 colon; test: NCI tumour cell line growth inhibition, 48 h; in the data active = GI50 below about 0.43 µM; inactive = the rest
Can you answer with just one of these options? active, inactive

Take a look at these entries with their results.
>>> df
                         compound_structure     target_desc     class
0  CC1(C)N=C(N)N=C(N)N1c1ccc(CNC(=O)Nc2ccc(S(=O)(=O)F)c(Cl)c2)c(Cl)c1  COLO 205 colon  inactive
1  NC(=O)c1cc(N2CC2)c([N+](=O)[O-])cc1[N+](=O)[O-]  COLO 205 colon  inactive
2          COc1ccc2cc(-c3cnc4nonc4n3)ccc2c1  COLO 205 colon  inactive
3  Fc1cccc(COc2ccc(Nc3ncnc4onc(-c5ccccc5)c34)cc2)c1  COLO 205 colon    active

Status in this test for `C=C(C)[C@@H]1CC[C@]2(CO)CC[C@]3(C)[C@H](CC[C@@H]4[C@@]5(C)CCCNC(C)(C)[C@@H]5CC[C@]43C)[C@@H]12` ? inactive

Which outcome was assigned to `COc1ccc(Nc2nc(NCCNc3ccnc4cc(Cl)ccc34)nc(N3CCOCC3)n2)cc1` in this test? inactive

Could you check what this test reported for `COc1cc2nc(Nc3cccc(Cl)c3)nc(N)c2cc1OC` ? inactive

What did the test return for `CCC[CH2][Sn](=[O])[CH2]CCC` ? inactive

Short answer needed: outcome of this test for `O=S(=O)(N=C1C(Cl)=C(Cl)C(=NS(=O)(=O)c2ccccc2)C(Cl)=C1Cl)c1ccccc1` ? inactive

Check the results log: what was the call for `NC(=S)N/N=C/c1ccc(OC(=O)COc2cc(Cl)c(Cl)cc2Cl)cn1` ? inactive

Record request — test call for `O=C(O)Cc1cccc2c(=O)cc(-c3ccccc3)oc12` inactive

----------
Quick reference: TGI of the listed items.
test system: UACC-62 melanoma; test: NCI tumour cell line growth inhibition, 48 h

compound	TGI
O=C(O)/C=C/c1ccc(Oc2ccccc2C(=O)O)o1	> 10 µM

Next item in the queue.
Form field - read-out: TGI; system: UACC-62 melanoma; submitted item: `CCOP(=O)(OCC)Oc1c(OC)c2[nH]c(C(=O)OC)cc2c2c(C(=O)O)c[nH]c12` > 100 µM

----------
system: IGROV1 ovarian; test: NCI tumour cell line growth inhibition, 48 h
Measured TGI values are reported for all entries that follow.
Give the quantity in µM, number only.

compound	unit of measurement	TGI
Cc1ccc(CNc2ccc3nc(CCC4CCCCC4)[nH]c3c2)cc1	µM	10.3

Hello, I am looking for reported TGI with IGROV1 ovarian for `COc1ccc2c(c1)c(-c1nc(-c3cn(C)c4ccncc34)cs1)cn2C` . Could you help? 3.65

API: value(readout= TGI, system= IGROV1 ovarian, query= `CC(C)(C)c1cc(/C=C(\C#N)C2=NCCO2)cc(C(C)(C)C)c1O` ) 21.9

What reported TGI corresponds to `CCN(CC)CCN(CC)CC.CCN(CC)CCN(CC)CC.[Cu+2].[Cu+2].[O-][Cl+3]([O-])([O-])[O-].[OH3+].[OH3+]` on IGROV1 ovarian? 87.9

Entry CSC(=O)C[C@@]12O[C@@H]([C@@H](C)C3CCC4[C@@H]5C(O)CC6=CC(=O)C=C[C@]6(C)C5CC[C@@]43C)C[C@](C)(O1)C(C)(C)O2 (stereo partly drawn) , system IGROV1 ovarian: what TGI was measured? 46.2

Lookup: TGI / IGROV1 ovarian / CCOC(=O)c1[nH]c2cc(Cl)ccc2c1[C@@H](C(=O)NC(C)(C)C)N(CC)C(=O)CCCCC#Cc1cccc2c1CN(C1CCC(=O)NC1=O)C2=O (stereo partly drawn) 11.1
